# Test system: cancer cell lines
# test.method.notes: Multiplexed cytotoxicity assay: cell proliferation (relative cell count IC50, GI50)
# Type: cell-based
# condition.info: 72 h, HS821T, Soft Tissue, Sarcoma

smiles.str	IC50
C[C@]1(C(N)=O)CC[C@@H](n2c(Nc3c(Cl)cc(Cl)cc3Cl)nc3cnc(N[C@@H]4CCOC[C@H]4F)nc32)CC1	> 10 µM

###

# Test system: cancer cell lines
# test.method.notes: Multiplexed cytotoxicity assay: cell proliferation (relative cell count IC50, GI50)
# Type: cell-based
# condition.info: KG1 (Hematopoietic and lymphoid, Leukemia)

molecule	tested.on	IC50
C[C@]1(C(N)=O)CC[C@@H](n2c(Nc3c(Cl)cc(Cl)cc3Cl)nc3cnc(N[C@@H]4CCOC[C@H]4F)nc32)CC1 [Compound 1]	cancer cell lines	32.5 nM

###

# System: HCC cell lines
# test.method.notes: HCC cell line proliferation (CellTiter-Glo)
# Type: cell-based
# condition.info: Homo sapiens, SNU-449, 72 h, CellTiter-Glo
metric: IC50

smiles.str	metric	result
C[C@]1(C(N)=O)CC[C@@H](n2c(Nc3c(Cl)cc(Cl)cc3Cl)nc3cnc(N[C@@H]4CCOC[C@H]4F)nc32)CC1	IC50	≥ 10 µM

###

# System: cancer cell lines
# test.method.notes: Multiplexed cytotoxicity assay: cell proliferation (relative cell count IC50, GI50)
# Type: cell-based
# condition.info: Homo sapiens, SW900, 72 h, SW900, Lung, SCLC; 72 h

compound	IC50
C[C@]1(C(N)=O)CC[C@@H](n2c(Nc3c(Cl)cc(Cl)cc3Cl)nc3cnc(N[C@@H]4CCOC[C@H]4F)nc32)CC1 [Compound 1]	39.9 nM

###

# Test system: cancer cell lines
# test.method.notes: Multiplexed cytotoxicity assay: cell proliferation (relative cell count IC50, GI50)
# Type: cell-based
# condition.info: Homo sapiens, A-375, A375 (Skin, Melanoma)

compound	IC50 / nM
C[C@]1(C(N)=O)CC[C@@H](n2c(Nc3c(Cl)cc(Cl)cc3Cl)nc3cnc(N[C@@H]4CCOC[C@H]4F)nc32)CC1 [Compound 1]	7.2

###

# Tested on: cancer cell lines
# test.method.notes: Multiplexed cytotoxicity assay: cell proliferation (relative cell count IC50, GI50)
# Type: cell-based
# condition.info: Homo sapiens, L-428, L428 (Hematopoietic and lymphoid, Lymphoma)
pIC50: −log10 of the molar value.

compound	pIC50
C[C@]1(C(N)=O)CC[C@@H](n2c(Nc3c(Cl)cc(Cl)cc3Cl)nc3cnc(N[C@@H]4CCOC[C@H]4F)nc32)CC1 [Compound 1]	5.46

###

# Tested on: cancer cell lines
# test.method.notes: Multiplexed cytotoxicity assay: cell proliferation (relative cell count IC50, GI50)
# Type: cell-based
# condition.info: Homo sapiens, ARH-77, 72 h, ARH77, Hematopoietic and lymphoid, Myeloma; 72 h

smiles.str	IC50
C[C@]1(C(N)=O)CC[C@@H](n2c(Nc3c(Cl)cc(Cl)cc3Cl)nc3cnc(N[C@@H]4CCOC[C@H]4F)nc32)CC1	> 10 µM

###

# System: 64 cancer cell lines
# test.method.notes: Anti-proliferative activity across a panel of 64 cancer cell lines (CellTiter-Glo)
# Type: cell-based
# condition.info: Homo sapiens, SNU-423, 72 h, SNU-423 (Liver)

compound	tested.on	IC50 [µM]
C[C@]1(C(N)=O)CC[C@@H](n2c(Nc3c(Cl)cc(Cl)cc3Cl)nc3cnc(N[C@@H]4CCOC[C@H]4F)nc32)CC1 [Compound 1]	64 cancer cell lines	10
